// pIC50 collected for human Cereblon WT GST-tagged protein (Homo sapiens (Human), UniProt Q96SW2)
// scale note: pIC50 = -log10(conc_M); give the bare number

Return the recorded pIC50 value; entry: CC1(C)CCC(CN2C3CCC2CN(Cc2cc(F)c4c(c2)CN(C2CCC(=O)NC2=O)C4=O)C3)=C(c2ccc(Cl)cc2)C1 (centres unmarked)
5.98

Return the recorded pIC50 value; entry: CC1(C)CCC(C(=O)N2CC3CC(C2)N3C(=O)c2ccc3c(c2)CN(C2CCC(=O)NC2=O)C3=O)=C(c2ccc(Cl)cc2)C1 (centres unmarked)
5.99

Return the recorded pIC50 value; entry: O=C1CCC(N2Cc3cc(CN4C5CCC4CN(Cc4ccccc4-c4ccc(Cl)cc4)C5)ccc3C2=O)C(=O)N1 (centres unmarked)
5.96

Return the recorded pIC50 value; entry: O=C1CCC(N2Cc3cc(CN4C5CC4CN(Cc4ccccc4-c4ccc(Cl)cc4)C5)c(F)cc3C2=O)C(=O)N1 (centres unmarked)
6.27

Return the recorded pIC50 value; entry: CC1(C)CCC(C(=O)N2CCN(Cc3ccc4c(c3)CN(C3CCC(=O)NC3=O)C4=O)CC2)=C(c2ccc(Cl)cc2)C1 (centres unmarked)
6.37

Return the recorded pIC50 value; entry: CC1(C)CCC(CN2CC3CC2CN3Cc2ccc3c(c2)CN(C2CCC(=O)NC2=O)C3=O)=C(c2ccc(F)cc2)C1 (centres unmarked)
6.23

Return the recorded pIC50 value; entry: Cn1cccc1-c1ccccc1CN1CCN(Cc2ccc3c(c2)CN(C2CCC(=O)NC2=O)C3=O)CC1 (centres unmarked)
6.12

Return the recorded pIC50 value; entry: CC1(C)CCC(C(=O)N2CC3CC2CN3Cc2ccc3c(c2)CN(C2CCC(=O)NC2=O)C3=O)=C(c2ccc(F)cc2)C1 (centres unmarked)
6.26

* * *

Target: human Cereblon WT GST-tagged protein (Homo sapiens (Human))
Sequence (Q96SW2 whole entry): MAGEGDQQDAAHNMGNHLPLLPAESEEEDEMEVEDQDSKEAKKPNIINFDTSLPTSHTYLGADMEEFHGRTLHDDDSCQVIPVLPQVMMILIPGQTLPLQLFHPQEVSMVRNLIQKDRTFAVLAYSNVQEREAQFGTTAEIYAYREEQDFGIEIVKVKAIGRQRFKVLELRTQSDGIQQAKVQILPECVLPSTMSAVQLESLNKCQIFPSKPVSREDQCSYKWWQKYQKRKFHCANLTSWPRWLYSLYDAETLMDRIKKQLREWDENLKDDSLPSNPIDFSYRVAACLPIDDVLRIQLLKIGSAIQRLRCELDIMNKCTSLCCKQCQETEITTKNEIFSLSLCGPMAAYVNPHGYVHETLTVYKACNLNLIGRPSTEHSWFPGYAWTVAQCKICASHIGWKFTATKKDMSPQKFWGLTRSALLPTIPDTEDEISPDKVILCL
Mark true for IC50 under 900 nM, false if at or over.

Please check: IC50 for CC1(C)CCC(CN2CC(=Cc3ccc4c(c3)CN(C3CCC(=O)NC3=O)C4=O)C2)=C(c2ccc(F)cc2)C1 (stereo not drawn) , strictly under 900 nM or not?
true

Please check: IC50 for CC1(C)CCC(CN2C3CC2CN(Cc2ccc4c(c2F)CN(C2CCC(=O)NC2=O)C4=O)C3)=C(c2ccc(Cl)cc2)C1 (stereo not drawn) , strictly under 900 nM or not?
true

Please check: IC50 for CC1(C)CCC(CN2CCN(Cc3cc(F)c4c(c3)CN(C3CCC(=O)NC3=O)C4=O)CC2)=C(c2ccc(Cl)cc2)C1 (stereo not drawn) , strictly under 900 nM or not?
false

Please check: IC50 for CC1(C)CCC(CN2CC3CCC2CN3c2ccc3c(c2)C(=O)N(C2CCC(=O)NC2=O)C3=O)=C(c2ccc(Cl)cc2)C1 (stereo not drawn) , strictly under 900 nM or not?
true

Please check: IC50 for O=C1CCC(N2C(=O)c3ccc(CN4CCN(C(=O)C5=C(c6ccc(F)cc6)CCCC5)CC4)cc3C2=O)C(=O)N1 (stereo not drawn) , strictly under 900 nM or not?
false

Please check: IC50 for O=C1CCC(N2Cc3cc(CN4CC5CCC4CN5Cc4ccccc4-c4ccc(Cl)cc4)ccc3C2=O)C(=O)N1 (stereo not drawn) , strictly under 900 nM or not?
true

Please check: IC50 for CC1(C)CCC(CN2CCN(Cc3ccc4c(c3)CN(C3CCC(=O)NC3=O)C4=O)CC2)=C(c2cnco2)C1 (stereo not drawn) , strictly under 900 nM or not?
true

Please check: IC50 for CC1(C)CCC(C(=O)N2C3CCC2CN(Cc2ccc4c(c2)CN(C2CCC(=O)NC2=O)C4=O)C3)=C(c2ccc(Cl)cc2)C1 (stereo not drawn) , strictly under 900 nM or not?
true

Please check: IC50 for CC1(C)CCC(CN2CC3CC(C2)N3c2ccc3c(c2)C(=O)N(C2CCC(=O)NC2=O)C3=O)=C(c2ccc(F)cc2)C1 (stereo not drawn) , strictly under 900 nM or not?
false

Please check: IC50 for O=C1CCC(N2Cc3cc(CN4CCN(Cc5ccc(-c6ccc[nH]6)cc5)CC4)ccc3C2=O)C(=O)N1 (stereo not drawn) , strictly under 900 nM or not?
true

Please check: IC50 for CC1(C)CCC(CN2CC3CC(C2)N3Cc2ccc3c(c2)CN(C2CCC(=O)NC2=O)C3=O)=C(c2ccc(Cl)cc2)C1 (stereo not drawn) , strictly under 900 nM or not?
true

Please check: IC50 for CC1(C)CCC(CN2CCN(Cc3ccc4c(c3)CN(C3CCC(=O)NC3=O)C4=O)CC2)=C(c2ccc(Cl)cc2)C1 (stereo not drawn) , strictly under 900 nM or not?
false
